LDH released by primary neurons with tau oligomers, antibody at 0.33 molar equivs reference
target: human tau oligomers (human, UniProt P10636-6 2-383, limits assumed); assay: cell-based or functional assay
Sequence (P10636 other isoform, or with tags, fused parts or gaps limits assumed): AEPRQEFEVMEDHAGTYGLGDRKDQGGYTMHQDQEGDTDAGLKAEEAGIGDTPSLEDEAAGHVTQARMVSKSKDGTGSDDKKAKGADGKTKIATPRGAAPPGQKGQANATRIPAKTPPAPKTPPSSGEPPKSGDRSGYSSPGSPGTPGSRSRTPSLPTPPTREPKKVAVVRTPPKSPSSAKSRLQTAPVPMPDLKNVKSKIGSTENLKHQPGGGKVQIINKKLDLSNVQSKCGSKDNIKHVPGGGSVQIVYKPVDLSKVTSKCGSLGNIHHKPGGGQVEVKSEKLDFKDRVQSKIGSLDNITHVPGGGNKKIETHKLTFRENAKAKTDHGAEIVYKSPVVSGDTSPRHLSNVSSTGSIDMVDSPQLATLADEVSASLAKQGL
quantity.measured: LDH released by primary neurons with tau oligomers, antibody at 0.33 molar equivs

- mouse 12C4 antibody (antibody, mouse IgG2a, V domains shown, also called m12C4) VH: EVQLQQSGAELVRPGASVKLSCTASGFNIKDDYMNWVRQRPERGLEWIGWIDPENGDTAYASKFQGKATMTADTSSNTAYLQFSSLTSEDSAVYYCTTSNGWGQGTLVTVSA VL: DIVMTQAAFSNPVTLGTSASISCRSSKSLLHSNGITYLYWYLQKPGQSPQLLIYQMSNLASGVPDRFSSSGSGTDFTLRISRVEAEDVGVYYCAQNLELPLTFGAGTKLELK: 152 % of control
- mouse 9F5 antibody (antibody, mouse IgG1, V domains shown, also called m9F5; murine 9F5) VH: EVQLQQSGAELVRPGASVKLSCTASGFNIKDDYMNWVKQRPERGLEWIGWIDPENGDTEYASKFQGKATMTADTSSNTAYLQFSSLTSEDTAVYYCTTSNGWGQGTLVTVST VL: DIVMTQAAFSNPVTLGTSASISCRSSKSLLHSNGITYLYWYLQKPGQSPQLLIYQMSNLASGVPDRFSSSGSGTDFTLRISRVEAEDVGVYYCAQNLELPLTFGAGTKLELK: 152 % of control
- mouse 10C12 antibody (antibody, mouse IgG2a, V domains shown, also called m10C12) VH: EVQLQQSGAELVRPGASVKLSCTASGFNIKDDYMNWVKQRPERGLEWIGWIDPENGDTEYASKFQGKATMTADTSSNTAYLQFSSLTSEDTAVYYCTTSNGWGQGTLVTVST VL: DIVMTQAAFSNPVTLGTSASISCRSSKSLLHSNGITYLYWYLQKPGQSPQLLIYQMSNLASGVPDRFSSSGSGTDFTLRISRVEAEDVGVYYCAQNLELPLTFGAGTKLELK: 129 % of control
- mouse 2D11 antibody (antibody, mouse IgG2a, V domains shown) VH: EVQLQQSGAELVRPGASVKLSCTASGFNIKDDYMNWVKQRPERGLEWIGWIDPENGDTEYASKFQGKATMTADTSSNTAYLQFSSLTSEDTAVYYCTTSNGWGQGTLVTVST VL: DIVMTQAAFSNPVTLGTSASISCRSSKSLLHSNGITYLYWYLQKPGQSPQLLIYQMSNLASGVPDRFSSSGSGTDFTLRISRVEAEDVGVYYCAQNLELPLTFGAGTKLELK: 148 % of control
